Biological target: Calpain-1 catalytic subunit (Sus scrofa)
Sequence (P35750 whole entry): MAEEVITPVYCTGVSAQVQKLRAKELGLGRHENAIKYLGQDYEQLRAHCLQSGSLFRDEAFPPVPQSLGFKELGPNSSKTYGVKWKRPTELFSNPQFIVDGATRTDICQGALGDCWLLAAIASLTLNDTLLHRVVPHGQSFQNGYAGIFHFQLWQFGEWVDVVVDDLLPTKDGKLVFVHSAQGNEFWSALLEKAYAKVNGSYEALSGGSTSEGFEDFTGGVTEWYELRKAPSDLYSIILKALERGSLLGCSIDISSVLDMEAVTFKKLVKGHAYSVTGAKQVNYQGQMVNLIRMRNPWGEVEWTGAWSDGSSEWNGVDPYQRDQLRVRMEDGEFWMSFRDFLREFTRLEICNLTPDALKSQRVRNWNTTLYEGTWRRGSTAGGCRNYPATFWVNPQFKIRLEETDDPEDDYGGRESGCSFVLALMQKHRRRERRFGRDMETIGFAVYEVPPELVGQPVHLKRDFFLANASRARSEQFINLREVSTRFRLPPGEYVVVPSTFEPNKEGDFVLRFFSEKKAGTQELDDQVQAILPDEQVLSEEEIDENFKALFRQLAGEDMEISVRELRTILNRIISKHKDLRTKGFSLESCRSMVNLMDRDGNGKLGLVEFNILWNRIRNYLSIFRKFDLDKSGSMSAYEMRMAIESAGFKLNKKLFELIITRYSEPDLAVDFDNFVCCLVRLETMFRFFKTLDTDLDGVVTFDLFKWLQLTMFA
Assay: Inhibitory activity against porcine calpain I using Suc-Leu-Tyr-AMC fluorogenic substrate
The label True is reserved for IC50 strictly under 100 nM; False covers values equal to or above it.

Examples with answers:
Prompt: Is it true that IC50 reported for CCNC(=O)C(=O)[C@@H](NC(=O)[C@@H](NC(=O)CCCCC1CCSS1)C(C)C)C(c1ccccc1)c1ccccc1 (some centres not stated) is less than 100 nM?
Response: False

Prompt: Find out if reported IC50 for CC(C)C[C@H](NC(=O)CCCCC1CCSS1)C(=O)NC(Cc1ccc(Br)cc1)C(=O)C(=O)N1CCOCC1 (some centres not stated) is less than 100 nM
Response: False

Prompt: Find out if reported IC50 for CC(C)C[C@H](NC(=O)CCCCC1CCSS1)C(=O)NC(Cc1ccc(Br)cc1)C(=O)C(=O)NCCCN1CCOCC1 (some centres not stated) is less than 100 nM
Response: False

Prompt: Below 100 nM on IC50? Entry CCCCc1ccc(C(=O)N[C@H](C(=O)N[C@@H](Cc2ccc(Cl)cc2)C(=O)C(=O)NCC)C(C)C)cc1
Response: False

Prompt: Confirm or reject: IC50 of CCNC(=O)C(=O)[C@H](Cc1ccc(Cl)cc1)NC(=O)[C@@H](NC(=O)CCCCC1CCS[S+]1[O-])C(C)C (some centres not stated) lies strictly below 100 nM
Response: True

***
Prompt: In the record for CCNC(=O)C(=O)[C@H](Cc1ccc(Br)cc1)NC(=O)[C@@H](NC(=O)CCCCC1CCSS1)C(C)CC (some centres not stated) , is IC50 less than 100 nM?
Response: False

Prompt: Report whether reported IC50 is lower than 100 nM (strictly) for CCNC(=O)C(=O)[C@H](Cc1ccc(Br)cc1)NC(=O)[C@@H](NC(=O)CCCCC1CCSS1)C(C)C (some centres not stated)
Response: True

Prompt: Hello, is IC50 of the following compound strictly smaller than 100 nM? CCNC(=O)C(=O)[C@H](CC(C)C)NC(=O)[C@@H](NC(=O)CCCCC1CCSS1)C(C)C (some centres not stated)
Response: False

Prompt: Dear colleague, could you confirm whether IC50 of CCNC(=O)C(=O)[C@H](Cc1ccc(Cl)cc1)NC(=O)[C@@H](NC(=O)CNC(=O)CCCCC1CCSS1)C(C)C (some centres not stated) falls below 100 nM? Thanks.
Response: True

Prompt: Hi there! Is IC50 for CC(C)C[C@H](NC(=O)CCCCC1CCSS1)C(=O)NC(Cc1ccc(Br)cc1)C(=O)C(N)=O (some centres not stated) below 100 nM, do you know?
Response: True

Prompt: Given the entry CCCCCCCCCCCC(=O)N[C@H](C(=O)N[C@@H](Cc1ccc(Cl)cc1)C(=O)C(=O)NCC)C(C)C , would its reported IC50 be below 100 nM?
Response: False

Prompt: I'd appreciate it if you could check whether CCNC(=O)C(=O)[C@H](Cc1ccc(Cl)cc1)NC(=O)[C@H](CC(C)C)NC(=O)CCCCC1CCSS1 (some centres not stated) has IC50 smaller than 100 nM.
Response: True

Prompt: Please indicate whether the reported IC50 of CCNC(=O)C(=O)[C@H](Cc1ccc(C(F)(F)F)cc1)NC(=O)[C@@H](NC(=O)CCCCC1CCSS1)C(C)C (some centres not stated) is strictly below 100 nM.
Response: False

Prompt: Lab log: compare recorded IC50 with 100 nM; is it strictly lower for CCNC(=O)C(=O)[C@H](Cc1ccc(Cl)cc1)NC(=O)[C@@H](NC(=O)OCc1ccccc1)C(C)C ?
Response: True

Prompt: Record CCNC(=O)C(=O)[C@H](Cc1ccc(Br)cc1)NC(=O)[C@@H](NC(=O)CCCCC1CCSS1)C1CCCCC1 (some centres not stated) : is its IC50 strictly below 100 nM?
Response: False

Prompt: Hi there! Is IC50 for CCOC(=O)C(=O)C(Cc1ccc(Br)cc1)NC(=O)[C@H](CC(C)C)NC(=O)CCCCC1CCSS1 (some centres not stated) below 100 nM, do you know?
Response: False

Prompt: Problem: For the compound CCNC(=O)C(=O)[C@H](Cc1ccc(Cl)cc1)NC(=O)[C@@H](NC(=O)CCCC1CCCS1)C(C)C (some centres not stated) , is IC50 under 100 nM?
Response: False

Prompt: Hello, is IC50 of the following compound strictly smaller than 100 nM? CCNC(=O)C(=O)[C@H](Cc1ccc(Cl)cc1)NC(=O)[C@@H](NC(=O)CCNC(=O)CCCCC1CCSS1)C(C)C (some centres not stated)
Response: True

Prompt: I'd appreciate it if you could check whether CCNC(=O)C(=O)[C@H](Cc1ccc(C(C)(C)C)cc1)NC(=O)[C@@H](NC(=O)CCCCC1CCSS1)C(C)C (some centres not stated) has IC50 smaller than 100 nM.
Response: False

Prompt: API: query returns whether the compound falls strictly under 100 nM in IC50. Query: CCNC(=O)C(=O)[C@@H](NC(=O)[C@@H](NC(=O)CCCCC1CCSS1)C(C)C)c1ccccc1 (some centres not stated)
Response: False

Prompt: Take the compound CCNC(=O)C(=O)[C@H](CC1CCCCC1)NC(=O)[C@@H](NC(=O)CCCCC1CCSS1)C(C)C (some centres not stated) and say whether its IC50 is less than 100 nM.
Response: False

These data points were gathered from ChEMBL document CHEMBL1141207.
